- Target Or Test System: T1, recombinant human CD3ε-ECD His protein (human, UniProt P07766 23-126)
- T1 construct: extracellular domain; also called human CD3ε-His; CD3ε antigen protein; not shown: His tag
- T1 sequence (P07766 23-126): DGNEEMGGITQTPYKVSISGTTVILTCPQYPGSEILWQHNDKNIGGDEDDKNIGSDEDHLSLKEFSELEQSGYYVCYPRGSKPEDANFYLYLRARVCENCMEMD
- Experimental Protocol: SPR, antibody captured on Protein A chip
Reported Kd values for the following binders.
Give your result in nM as a bare value.

Examples with their reported Kd follow.
5-40.21-H3-L1 humanized antibody (antibody, human IgG1, kappa, V domains shown) VH: EVQLVQSGAEVKKPGASVKVSCKASGYTFTSYWMHWVRQAPGQGLEWMGNTYPGSGSTNYDEKFKSRVTITVDSSASTAYMELSSLRSEDTAVYYCTRDRYGVYYFDYWGQGTTVTVSS VL: DIVMTQSPDSLAVSLGERATINCKSSQSLLNSRTRKNYLAWYQQKPGQSPKLLIYWASTRESGVPDRFSGSGSGTDFTLTISSLQAEDVAVYYCTQSYNLRTFGGGTKVEIKR
1.87
1-22.6-1-H2a-L2a humanized antibody (antibody, human IgG1, kappa, V domains shown, also called 1-22.6-H2a-L2a) VH: EVQLVQSGSELKKPGASVKVSCKTSGYTFTSYGMSWVRQAPGQGLEWMGWINTYSGVPTYAQDFKGRFVFSLDTSVSTAYLQISSLKAEDTAVYYCARLKNNPFVWGQGTTVTVSS VL: DIVMTQSPDSLAVSLGERATINCRSSQLILHSSGNTYLEWYQQKPGQSPKLLIYKVSNRFSGVPDRFSGSGSGTDFTLTISSLQAEDVAVYYCFQGSHFPWTFGGGTKVEIKR
3.64
8-18.1-H1-L2 humanized antibody (antibody, human IgG1, kappa, V domains shown) VH: EVQLVQSGAEVKKPGASVKVSCKASGYTFTMNTMHWVRQAPGQRLEWMGYINPYSGYTKYNQIFKDRVTITADKSASTAYMELSSLRSEDTAVYYCLRGGEGVWGQGTTVTVSS VL: DVVMTQSPLSLPVTLGQPASISCKSSQSLLDSDGKTYLNWLQQRPGQSPRRLIYLVSELGSGVPDRFSGSGSGTDFTLKISRVEAEDVGVYYCWQGTHFPRTFGGGTKVEIKR
0.908
5-7.13-H1a-L2 humanized antibody (antibody, human IgG1, kappa, V domains shown) VH: EVQLVQSGAEVKKPGASVKVSCKASGYTFTSYWVHWVRQAPGQRLEWMGNINPSDGVTNYNEKFKSRVTITVDKSASTAYMELSSLRSEDTAVYYCTRDAYGQYYFDNWGQGTTVTVSS VL: DIVMTQTPLSLPVTPGEPASISCKSSQSLLNSRTRKNYLAWYLQKPGQSPQLLIYWASVRDSGVPDRFSGSGSGTDFTLKISRVEAEDVGVYYCIQSYYLRTFGGGTKVEIKR
0.806
6-44.5-H1-L2 humanized antibody (antibody, human IgG1, kappa, V domains shown) VH: EVQLVQSGAEVKKPGSSVKVSCKASGHTFSSHIMHWVRQAPGQGLEWMGYINPNNDRTEYSEKFKGRVTITADKSTSTAYMELSSLRSEDTAVYYCAGEAYYSNSLYAMDYWGQGTTVTVSS VL: DIVMTQSPDSLAVSLGERATINCKSSQSLFNSRTRKNYLAWYQQKPGQSPKLLIYWASTRESGVPDRFSGSGSGTDFTLTISSLQAEDVAVYYCKQSYYLRTFGGGTKVEIKR
0.669

Then there is this binder:
INPUT: Entry 7-35.6-H2-L3 humanized antibody (antibody, human IgG1, lambda, V domains shown) VH: EVQLVESGGGLVQPGGSLKLSCAASGFTFNTYAMNWVRQASGKGLEWVGRIRSKINNYATYYGDSVKDRFTISRDDSKNTFYLQMNSLKTEDTAVYYCVIHENYGSISWFAYWGQGTLVTVSS VL: ETVVTQEPSLTVSPGGTVTLTCRSSTGAVTTSNYANWVQQKPGQAFTGLIGGTNNRAPWTPARFSGSLLGGKAALTLSGVQPEDEAEYYCALWYSNHWVFGGGTKLTVLG has what Kd?
OUTPUT: 1.29

Data origin, for the record: patent US20250136687A1
